TARGET ENTITY: GCN2 kinase (Homo sapiens (Human))
Sequence (Q9P2K8 whole entry): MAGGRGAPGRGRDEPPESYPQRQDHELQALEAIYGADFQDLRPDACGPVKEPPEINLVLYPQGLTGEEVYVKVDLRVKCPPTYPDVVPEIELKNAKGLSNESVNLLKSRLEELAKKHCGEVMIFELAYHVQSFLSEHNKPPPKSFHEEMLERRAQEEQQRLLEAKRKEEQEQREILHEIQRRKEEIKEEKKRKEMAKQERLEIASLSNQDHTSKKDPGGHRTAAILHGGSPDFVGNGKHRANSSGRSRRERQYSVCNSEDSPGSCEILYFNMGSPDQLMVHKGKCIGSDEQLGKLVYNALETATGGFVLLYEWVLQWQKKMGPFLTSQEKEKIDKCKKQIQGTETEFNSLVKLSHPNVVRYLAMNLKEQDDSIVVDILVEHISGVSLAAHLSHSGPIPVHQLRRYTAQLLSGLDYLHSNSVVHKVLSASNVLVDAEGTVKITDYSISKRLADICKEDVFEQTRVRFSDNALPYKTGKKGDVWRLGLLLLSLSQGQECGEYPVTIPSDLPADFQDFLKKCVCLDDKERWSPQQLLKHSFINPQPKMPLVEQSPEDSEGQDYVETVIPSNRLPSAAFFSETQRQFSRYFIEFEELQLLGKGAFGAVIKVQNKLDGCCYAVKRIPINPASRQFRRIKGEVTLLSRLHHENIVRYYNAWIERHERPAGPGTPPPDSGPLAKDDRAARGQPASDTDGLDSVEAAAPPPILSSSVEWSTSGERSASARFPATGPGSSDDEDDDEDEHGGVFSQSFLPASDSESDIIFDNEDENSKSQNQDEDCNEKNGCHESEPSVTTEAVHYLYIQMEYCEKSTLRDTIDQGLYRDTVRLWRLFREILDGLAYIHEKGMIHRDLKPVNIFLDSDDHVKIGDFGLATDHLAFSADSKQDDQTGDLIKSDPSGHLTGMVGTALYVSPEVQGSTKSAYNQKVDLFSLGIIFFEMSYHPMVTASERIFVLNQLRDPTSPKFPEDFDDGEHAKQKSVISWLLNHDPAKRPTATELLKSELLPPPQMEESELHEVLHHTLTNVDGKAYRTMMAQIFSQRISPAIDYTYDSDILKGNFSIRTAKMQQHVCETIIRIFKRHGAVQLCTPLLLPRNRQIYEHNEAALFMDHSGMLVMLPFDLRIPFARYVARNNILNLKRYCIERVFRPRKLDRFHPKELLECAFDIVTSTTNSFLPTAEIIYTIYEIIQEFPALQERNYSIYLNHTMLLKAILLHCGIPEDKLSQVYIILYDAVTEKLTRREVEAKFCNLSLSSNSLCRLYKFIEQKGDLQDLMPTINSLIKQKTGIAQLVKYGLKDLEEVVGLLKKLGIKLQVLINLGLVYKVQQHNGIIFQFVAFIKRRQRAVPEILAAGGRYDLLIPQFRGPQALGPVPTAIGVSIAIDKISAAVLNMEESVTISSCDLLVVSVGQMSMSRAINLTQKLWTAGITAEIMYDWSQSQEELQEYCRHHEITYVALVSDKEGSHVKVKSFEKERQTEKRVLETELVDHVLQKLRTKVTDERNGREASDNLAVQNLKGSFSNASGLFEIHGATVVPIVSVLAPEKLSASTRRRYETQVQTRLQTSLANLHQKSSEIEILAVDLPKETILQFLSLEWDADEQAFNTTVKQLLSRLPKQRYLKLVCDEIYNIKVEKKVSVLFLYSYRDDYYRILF
MEASUREMENT NOTES: Biochemical assay for GCN2 (TR-FRET kinase activity assay)
ASSAY CONTEXT: 1 mM ATP, 3-hour incubation
MEASURED ENDPOINT: IC50

{"CHEM SMILES": "CNc1ncc2cc(-c3cccc(NS(=O)(=O)c4cc(C(C)(C)C)ccc4OC)c3F)c(NC)nc2n1", "VAL": "1000 to 10000 nM"}
{"CHEM SMILES": "CNc1cc2nc(C)c(-c3cccc(NS(=O)(=O)c4cc(Cl)cnc4NC)c3F)cc2cn1", "VAL": "≤ 100 nM"}
{"CHEM SMILES": "COc1nc2nc(N)ncc2cc1-c1cc(F)cc(NS(=O)(=O)c2cc(Cl)cnc2OC)c1", "VAL": "≤ 100 nM"}
{"CHEM SMILES": "CNc1ncc2cc(-c3ccc(F)c(NS(=O)(=O)c4cc(Cl)cnc4OC)c3)c(C)nc2n1", "VAL": "1000 to 10000 nM"}
{"CHEM SMILES": "CNc1nc2nc(NCCOC)ncc2cc1-c1cccc(NS(=O)(=O)c2cc(Cl)cnc2OC)c1F", "VAL": "100 to 500 nM"}
{"CHEM SMILES": "CNc1ncc2cc(-c3cccc(NS(=O)(=O)c4cccnc4C(F)(F)F)c3F)c(NC)nc2n1", "VAL": "100 to 500 nM"}
{"CHEM SMILES": "COc1ncc(Cl)cc1S(=O)(=O)Nc1cc(F)cc(-c2cc3cnc(Nc4cnn(C)c4)nc3nc2C)c1", "VAL": "≤ 100 nM"}
{"CHEM SMILES": "CNc1nc2nc(N)ncc2cc1-c1cc(Cl)cc(NS(=O)(=O)c2cc(Cl)cnc2OC)c1", "VAL": "1000 to 10000 nM"}
{"CHEM SMILES": "CNc1ncc2cc(-c3cccc(NS(=O)(=O)c4cc(Cl)cnc4OC)c3F)c(NCCOC)nc2n1", "VAL": "≤ 100 nM"}
{"CHEM SMILES": "CNc1ncc2cc(-c3cccc(NS(=O)(=O)c4cc(F)cnc4OC)c3F)c(NC)nc2n1", "VAL": "≤ 100 nM"}
{"CHEM SMILES": "CNc1ncc2cc(-c3cc(F)cc(NS(=O)(=O)c4cc(Cl)cc(C(C)(C)O)c4Cl)c3)c(NC)nc2n1", "VAL": "1000 to 10000 nM"}
{"CHEM SMILES": "CNc1cc2nc(C)c(-c3cc(NS(=O)(=O)c4cc(Cl)cnc4OC)ccc3F)cc2cn1", "VAL": "≤ 100 nM"}
{"CHEM SMILES": "CNc1ncc2cc(-c3cc(NS(=O)(=O)c4cc(Cl)cnc4OC)cc(F)c3F)ccc2n1", "VAL": "500 to 1000 nM"}
{"CHEM SMILES": "CNc1ncc2cc(-c3cc(NS(=O)(=O)c4cc(Cl)cnc4OC)ccc3C)c(NC)nc2n1", "VAL": "100 to 500 nM"}
{"CHEM SMILES": "CNc1ncc2cc(-c3cc(NS(=O)(=O)c4cc(Cl)cnc4OC)c(F)cc3F)c(NC)nc2n1", "VAL": "500 to 1000 nM"}
{"CHEM SMILES": "CNc1ncc2cc(-c3cc(NS(=O)(=O)c4cc(Cl)cnc4OC)ccn3)ccc2n1", "VAL": "1000 to 10000 nM"}
{"CHEM SMILES": "CCNc1ncc2cc(-c3cccc(NS(=O)(=O)c4cc(Cl)cnc4OC)c3F)c(NC)nc2n1", "VAL": "≤ 100 nM"}
{"CHEM SMILES": "CNc1cc2nc(C)c(-c3cc(NS(=O)(=O)c4cc(Cl)cc(CO)c4Cl)c(F)cc3Br)cc2cn1", "VAL": "≤ 100 nM"}
{"CHEM SMILES": "CNc1ncc2cc(-c3cc(Cl)cc(NS(=O)(=O)c4cc(Cl)cnc4OC)c3)c(NC)nc2n1", "VAL": "500 to 1000 nM"}
{"CHEM SMILES": "CNc1cc2nc(C)c(-c3cc(F)cc(NS(=O)(=O)c4cc(Cl)cnc4OC)c3)cc2cn1", "VAL": "≤ 100 nM"}
{"CHEM SMILES": "CNc1ncc2cc(-c3cccc(NS(=O)(=O)c4cc(Cl)cnc4OC)c3F)c(OC)nc2n1", "VAL": "≤ 100 nM"}
{"CHEM SMILES": "CNc1ncc2cc(-c3cc(F)cc(NS(=O)(=O)c4cc(Cl)cnc4OC)c3)c(NC[C@H](C)OC)nc2n1", "VAL": "500 to 1000 nM"}
{"CHEM SMILES": "CNc1cc2nc(NC)c(-c3cccc(NS(=O)(=O)c4cc(Cl)cnc4OC)c3F)cc2cn1", "VAL": "≤ 100 nM"}
{"CHEM SMILES": "CNc1nc2nc(NC3COC3)ncc2cc1-c1cccc(NS(=O)(=O)c2cc(Cl)cnc2OC)c1F", "VAL": "100 to 500 nM"}
{"CHEM SMILES": "CNc1ncc2cc(-c3cc(NS(=O)(=O)c4cc(Cl)cnc4OC)c(F)cc3F)c(C)nc2n1", "VAL": "500 to 1000 nM"}

###

Here's a batch of molecules along with measured IC50 for UniProt:Q9P2K8.

{"CHEM SMILES": "CNc1ncc2cc(-c3cccc(NS(=O)(=O)c4cc(Cl)cnc4OC)c3)c(N)nc2n1", "IC50": "≤ 100 nM"}
{"CHEM SMILES": "COc1nc2nc(N)ncc2cc1-c1cccc(NS(=O)(=O)c2cc(Cl)cnc2OC)c1F", "IC50": "≤ 100 nM"}
{"CHEM SMILES": "CNc1nc2nc(NC(C)C)ncc2cc1-c1cccc(NS(=O)(=O)c2cc(Cl)cnc2OC)c1F", "IC50": "≤ 100 nM"}
{"CHEM SMILES": "CNc1nc2nc(NC3CCC3)ncc2cc1-c1cccc(NS(=O)(=O)c2cc(Cl)cnc2OC)c1F", "IC50": "≤ 100 nM"}
{"CHEM SMILES": "CNc1ncc2cc(-c3cc(NS(=O)(=O)c4cc(Cl)cnc4OC)ccc3C(F)(F)F)ccc2n1", "IC50": "1000 to 10000 nM"}
{"CHEM SMILES": "CNc1cc2ncc(-c3cc(F)cc(NS(=O)(=O)c4cc(Cl)cnc4OC)c3)cc2cn1", "IC50": "1000 to 10000 nM"}
{"CHEM SMILES": "CNc1ncc2cc(-c3cccc(NS(=O)(=O)c4cc(Cl)cnc4OC)c3F)c(N)nc2n1", "IC50": "≤ 100 nM"}
{"CHEM SMILES": "CNc1ncc2cc(-c3cccc(NS(=O)(=O)c4ccc(C#N)cc4Cl)c3F)c(NC)nc2n1", "IC50": "1000 to 10000 nM"}
{"CHEM SMILES": "CNc1cc2nc(N)c(-c3cccc(NS(=O)(=O)c4cc(Cl)cnc4OC)c3F)cc2cn1", "IC50": "≤ 100 nM"}
{"CHEM SMILES": "COc1ncc(Cl)cc1S(=O)(=O)Nc1cccc(-c2cc3cnc(Nc4cnn(C)c4)nc3nc2C)c1F", "IC50": "≤ 100 nM"}
{"CHEM SMILES": "CNc1ncc2cc(-c3cc(NS(=O)(=O)c4cc(Cl)cnc4OC)c(C)cc3F)c(C)nc2n1", "IC50": "1000 to 10000 nM"}
{"CHEM SMILES": "CNc1ncc2cc(-c3cc(NS(=O)(=O)c4cc(Cl)cnc4OC)ccc3OC)ccc2n1", "IC50": "1000 to 10000 nM"}
{"CHEM SMILES": "CNc1ncc2cc(-c3cc(NS(=O)(=O)c4cc(Cl)cnc4OC)cc(F)c3C)c(NC)nc2n1", "IC50": "≤ 100 nM"}
{"CHEM SMILES": "CNc1ncc2cc(-c3cc(NS(=O)(=O)c4cc(Cl)cnc4OC)ccc3Cl)ccc2n1", "IC50": "100 to 500 nM"}
{"CHEM SMILES": "CNc1ncc2cc(-c3cccc(NS(=O)(=O)c4ccc(Cl)nc4OC)c3F)c(NC)nc2n1", "IC50": "100 to 500 nM"}
{"CHEM SMILES": "CNc1ncc2cc(-c3cccc(NS(=O)(=O)c4cc(Cl)cnc4OC4CC4)c3F)c(NC)nc2n1", "IC50": "100 to 500 nM"}
{"CHEM SMILES": "CNc1cc2nc(C)c(-c3cccc(NS(=O)(=O)c4cc(Cl)cc(CO)c4Cl)c3F)cc2cn1", "IC50": "≤ 100 nM"}
{"CHEM SMILES": "CNc1ncc2cc(-c3cc(NS(=O)(=O)c4cc(Cl)cnc4OC)cc(F)c3F)c(C)nc2n1", "IC50": "≤ 100 nM"}
{"CHEM SMILES": "CNc1nc2nc(NCC(F)(F)F)ncc2cc1-c1cccc(NS(=O)(=O)c2cc(Cl)cnc2OC)c1F", "IC50": "≤ 100 nM"}
{"CHEM SMILES": "CNc1nc2nc(NC3CC3)ncc2cc1-c1cccc(NS(=O)(=O)c2cc(Cl)cnc2OC)c1F", "IC50": "≤ 100 nM"}
{"CHEM SMILES": "CNc1ncc2cc(-c3cc(NS(=O)(=O)c4cc(Cl)cnc4OC)cc(F)c3F)c(NC)nc2n1", "IC50": "≤ 100 nM"}
